B1: PPFIA4 (parent)
chain: YAGNLHESGVHGALLALDENFDHN

Variants of: B1
Test: protein stability index of a GFP-peptide fusion (GPS, HEK-293T) (PSI 1-6); higher = more stable;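 further: lentivirally expressed fusions sorted by FACS into six bins by GFP to DsRed ratio, PSI derived from sequencing read proportions per bin multiplied by bin number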
Conditions: c terminus: a fixed tail appended
variants and their reported protein stability index

Some variants with known protein stability index results, for comparison:
E7C = 1.67
Y1I = 3.86
N4F = 1.75
L14D = 4.59
H11N = 2.83

Look at this variant and give its reported protein stability index. A2V
1.45

Look at this variant and give its reported protein stability index. H6P
2.98

Look at this variant and give its reported protein stability index. N24I
2.27

Look at this variant and give its reported protein stability index. L15N
3.89

Look at this variant and give its reported protein stability index. H6N
2.05
